targetOrTestSystem: Phosphatidylinositol 4,5-bisphosphate 3-kinase catalytic subunit gamma isoform [144-1102] (Homo sapiens, UniProt P48736)
Construct: 144-1102
Sequence (P48736 144-1102): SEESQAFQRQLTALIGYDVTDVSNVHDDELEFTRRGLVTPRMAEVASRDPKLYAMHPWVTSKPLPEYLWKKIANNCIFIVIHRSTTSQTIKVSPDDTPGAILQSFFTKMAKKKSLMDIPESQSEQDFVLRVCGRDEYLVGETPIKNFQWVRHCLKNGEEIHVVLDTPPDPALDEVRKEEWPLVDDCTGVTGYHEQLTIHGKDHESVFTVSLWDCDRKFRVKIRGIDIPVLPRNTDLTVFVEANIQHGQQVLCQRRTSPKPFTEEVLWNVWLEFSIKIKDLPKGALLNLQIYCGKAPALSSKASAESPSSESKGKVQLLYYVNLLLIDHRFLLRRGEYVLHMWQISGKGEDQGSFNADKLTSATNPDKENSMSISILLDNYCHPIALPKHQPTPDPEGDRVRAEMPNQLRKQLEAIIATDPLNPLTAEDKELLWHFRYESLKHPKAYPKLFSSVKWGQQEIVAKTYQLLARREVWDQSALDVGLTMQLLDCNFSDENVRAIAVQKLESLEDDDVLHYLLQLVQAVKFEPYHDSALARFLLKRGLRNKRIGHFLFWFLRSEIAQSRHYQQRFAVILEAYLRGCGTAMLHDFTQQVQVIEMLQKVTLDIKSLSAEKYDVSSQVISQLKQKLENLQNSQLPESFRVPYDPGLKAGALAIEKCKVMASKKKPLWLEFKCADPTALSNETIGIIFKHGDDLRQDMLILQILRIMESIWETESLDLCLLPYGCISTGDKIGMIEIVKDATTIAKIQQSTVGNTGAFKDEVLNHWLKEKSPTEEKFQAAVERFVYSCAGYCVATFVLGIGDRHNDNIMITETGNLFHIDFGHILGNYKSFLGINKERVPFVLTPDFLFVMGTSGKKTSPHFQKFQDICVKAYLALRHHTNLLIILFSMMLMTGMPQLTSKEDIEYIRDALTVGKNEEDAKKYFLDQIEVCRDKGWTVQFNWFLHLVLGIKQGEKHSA
assayMethodText: Enzymatic Activity Assay
endpointName: IC50
Answers without a unit are incomplete; give the number and then its unit.

Kindly note the recorded IC50 for CC[C@H](C)N1Cc2cc(-c3sc(Nc4cccc(N5CCCOC5=O)n4)nc3C)cc(S(=O)(=O)NC)c2C1=O [US10961236, Example 61] , which is 1 nM
